In what follows, each item is paired with its GI50 for SK-MEL-5 melanoma.
experimental endpoint: GI50

| compound | value reported |
| --- | --- |
| Oc1ccc(Cl)cc1Cc1cc(Cl)ccc1O | 1.62 µM |
| O=c1c2ccccc2oc2ccc(OCCCCCCN3CCCCCC3)cc12 | 1.68 µM |
| CC1CC2(C)CC(=O)C1C1C(=O)N(CCN3CCCCC3)C(=O)C12 (configuration not stated) | > 100 µM |
| O=c1cc(-c2ccccn2)[nH]c2ccc(Cl)cc12 | 26.6 µM |
| CC1COCC(C)N1C1=C(Cl)C(=O)c2ccccc2C1=O (configuration not stated) | 6.83 µM |
| CO[C@]1(CN2CCN3CCCC[C@@H]3C2)/C=C/C[C@H](C)[C@@H](C)S(=O)(=O)NC(=O)c2ccc3c(c2)N(C[C@@H]2CC[C@H]21)C[C@@]1(CCCc2cc(Cl)ccc21)CO3 | 1.71 µM |
| OCNCCNc1nc2ccccc2c2[nH]c3ccccc3c12 | 1.28 µM |

====

# Tested on: MALME-3M melanoma

| molecule | target entity | GI50 |
| --- | --- | --- |
| O=C(Nc1ccccc1C(=O)N/N=C(\c1ccccc1)c1ccccn1)c1ccc(F)cc1 | MALME-3M melanoma | 0.767 µM |
| O=c1c2ccccc2oc2ccc(OCCCCCCN3CCCCCC3)cc12 | MALME-3M melanoma | 1.93 µM |
| CSC1=NCC2(S1)c1ccccc1N(C(=O)OC(C)(C)C)C2N1CCCCC1 (stereo not given) | MALME-3M melanoma | 15.3 µM |
| CC/C=C\C/C=C\C[C@H](O)C/C=C1/C(=O)C=C[C@@H]1C/C=C\CCCC(=O)OC | MALME-3M melanoma | 1.92 µM |
| Oc1ccc(Cl)cc1Cc1cc(Cl)ccc1O | MALME-3M melanoma | 2.55 µM |

====

# Test system: MCF7 breast
Outcomes: active, inactive

| compound | target entity | category |
| --- | --- | --- |
| O=c1c2ccccc2oc2ccc(OCCCCCCN3CCCCCC3)cc12 | MCF7 breast | inactive |
| CC1COCC(C)N1C1=C(Cl)C(=O)c2ccccc2C1=O (stereo unspecified) | MCF7 breast | inactive |
| CO[C@@]12[C@@H]3NC3CN1C1=C(C(=O)C(N)=C(C)C1=O)[C@@H]2COC(N)=O (stereo partly specified) | MCF7 breast | active |
| CCOc1cc(-c2ccc[nH]2)[nH]c1/C=C1\N=C(C)C(C(=O)OC)=C1C | MCF7 breast | active |
| C=CC1CN2CCC1CC2C(O)c1ccnc2ccccc12 (stereo unspecified) | MCF7 breast | inactive |
| Nc1ccc2c(c1)c(N)nn2C(=O)Nc1ccc(Cc2ccccc2)cc1 | MCF7 breast | inactive |
| O=C(Nc1cccc(-n2cc(-c3ccncc3)c(-c3ccc(O)c(Cl)c3)n2)c1)c1cccc(C(F)(F)F)c1 | MCF7 breast | inactive |
| C=[CH][Sn]([CH]=C)([O]c1cccc2cccnc12)[O]c1cccc2cccnc12 | MCF7 breast | inactive |
| Cc1cc(C(O)CN(C)C)cc2c1ccc1cc(C(C)C)ccc12 (stereo unspecified) | MCF7 breast | inactive |
| COc1cccc(/C=C/C(=O)c2cc3c(N)c(C(=O)Nc4cccc5ccccc45)sc3nc2C)c1 | MCF7 breast | active |
| CC(=O)Oc1ccc(/C=N/NC(N)=S)nc1 | MCF7 breast | inactive |
